Exercise: state measured fold (KD vs average of 4 runs of L1A2) for each of the binders provided.
Target desc: Clade B BaL gp120 protein (HIV-1 Clade B, BaL)
Method summary: BLI (Octet), IgG on anti-hIgG Fc sensor, gp120 analyte, 1:1 fit

Prompt: Endpoint output: fold (KD vs average of 4 runs of L1A2) of NglycoSA (antibody, V domains shown) VH: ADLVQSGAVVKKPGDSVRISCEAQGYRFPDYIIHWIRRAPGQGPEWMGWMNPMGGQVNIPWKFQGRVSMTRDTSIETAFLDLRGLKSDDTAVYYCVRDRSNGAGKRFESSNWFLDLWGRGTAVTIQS VL: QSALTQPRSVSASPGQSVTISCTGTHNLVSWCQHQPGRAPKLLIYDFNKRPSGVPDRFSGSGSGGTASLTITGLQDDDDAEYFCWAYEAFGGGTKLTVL . Value?
Completion: 1.54 fold

Prompt: Endpoint output: fold (KD vs average of 4 runs of L1A2) of Germ23 (antibody, V domains shown) VH: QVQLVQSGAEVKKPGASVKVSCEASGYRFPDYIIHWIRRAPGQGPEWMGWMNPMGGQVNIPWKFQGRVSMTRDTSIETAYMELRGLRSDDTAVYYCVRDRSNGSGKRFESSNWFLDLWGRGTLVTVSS VL: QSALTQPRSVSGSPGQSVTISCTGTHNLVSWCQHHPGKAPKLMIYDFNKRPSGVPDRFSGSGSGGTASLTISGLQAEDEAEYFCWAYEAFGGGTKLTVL . Value?
Completion: 1.79 fold

Value source: patent US20210040184A1
